Where these numbers come from: patent US12446583B2

Test system: Euschistus heros
Procedure Summary: Euschistus heros (Neotropical Brown Stink Bug) contact/feeding activity on sprayed soybean plants
Assay type: in vivo
Conditions: 120 h, read-out: control (mortality and growth effects)
Entries and their measured mortality at 50 ppm follow.
Endpoint: mortality at 50 ppm

# Compound, Endpoint Value
rows = [
    ("CCN1OCC(NC(=O)c2ccc(C3=NOC(c4cc(Cl)c(Cl)c(Cl)c4)(C(F)(F)F)C3)cc2Cl)C1=O (stereo not shown)", "≥ 80%"),
    ("CCN1OCC(NC(=O)c2ccc(C3=NOC(c4cc(Cl)cc(Cl)c4)(C(F)(F)F)C3)cc2C)C1=O (stereo not shown)", "≥ 80%"),
    ("CCN1OCC(NC(=O)c2ccc(C3=NOC(c4cc(Cl)c(Cl)c(Cl)c4)(C(F)(F)F)C3)cc2Br)C1=O (stereo not shown)", "≥ 80%"),
    ("Cc1cc(C2=NOC(c3cc(Cl)cc(Cl)c3)(C(F)(F)F)C2)ccc1C(=O)NC1CON(C)C1=O (stereo not shown)", "≥ 80%"),
    ("CCN1OCC(NC(=O)c2ccc(C3=NOC(c4cc(Cl)cc(Cl)c4)(C(F)(F)F)C3)cc2C(F)(F)F)C1=O (stereo not shown)", "≥ 80%"),
    ("CCN1OCC(NC(=O)c2ccc(C3=NOC(c4cc(Cl)c(Cl)c(Cl)c4)(C(F)(F)F)C3)cc2C(F)(F)F)C1=O (stereo not shown)", "≥ 80%"),
    ("CCN1OCC(NC(=O)c2ccc(C3=NOC(c4cc(Cl)cc(Cl)c4)(C(F)(F)F)C3)cc2Br)C1=O (stereo not shown)", "≥ 80%"),
]
